Would you kindly list Primary assay EC50 (cAMP), Mean pM GLP-1R for each of these binders?
target: GLP-1 receptor (human, UniProt P43220 24-463); assay: cell-based or functional assay
Starred links: 1 amine or outer side, 2 acyl side, 3 side chain; linkers in the order of their positions; H or OH if unused. Non-standard residues stand in square brackets, D forms with d. Groups on a side chain read outwards from the residue. Primed or numbered codes have the meaning given here. No end group written: not given here. *: point of attachment. γGlu = O=C(O)[C@H](CCC(=O)[*:2])N[*:1]; Stearoyl = CCCCCCCCCCCCCCCCCC(=O)*; αMeF = C[C@](N)(Cc1ccccc1)C(=O)O; αMeK = C[C@](N)(CCCCN)C(=O)O; αMeS = C[C@](N)(CO)C(=O)O; PEG2′ = not defined here; Aib = CC(C)(N)C(=O)O
Express the result in pM but write the number alone.

What value of Primary assay EC50 (cAMP), Mean pM GLP-1R has been reported for the following binder? H[Aib]EGS[αMeF]TSDV[αMeS]S[αMeF]LEGEAAK([PEG2′-PEG2′-γGlu-Stearoyl])E[αMeF]IAWVV[αMeK]GG-NH2 [SEQ ID NO 49]
124

Try the binder H[Aib]EGS[αMeF]TSDV[αMeS]S[αMeF]LEGEAAK([PEG2′-PEG2′-γGlu-Stearoyl])E[αMeF]IA[αMeF]VVKGG-NH2 [SEQ ID NO 50]
216
